Origin of the recorded values: patent US20230158025A1

test: rat microsomal stability (RLM); details: microsomal stability half-life
measured.attribute: Metab. Stabil. (m)
Numbers only, in m.

# molecule, Metab. Stabil. (m)
measured = [
    ("CCn1cc(CNC(=O)C2=C(C)NC(Nc3nc4cccc(N)c4o3)=NC2c2ccc(F)cc2Cl)cn1 (stereo not drawn) [Compound 118]", 18.81),
    ("CC1=C(C(=O)Nc2ccc(-n3cccn3)cc2)C(c2ccccc2Cl)N=C(Nc2nc3ccccc3o2)N1 (stereo not drawn) [Compound 184]", 16.4271),
    ("CC1=C(C(=O)NCc2cnn(C)c2)C(c2ccccc2Cl)N=C(Nc2nc3ccccc3o2)N1 (stereo not drawn) [Compound 238]", 15.67),
    ("CC1=C(C(=O)NCc2ccccc2CO)C(c2ccccc2Cl)N=C(Nc2nc3ccccc3o2)N1 (stereo not drawn) [Compound 229]", 5.0859),
    ("CC1=C(C(=O)N(C)c2ccccc2)C(c2ccccc2Cl)N=C(Nc2nc3ccccc3o2)N1 (stereo not drawn) [Compound 151]", 1.176),
]

Respectfully, I request Metab. Stabil. (m) for each entry included below.
1. COC(=O)Cc1ccc(NC(=O)C2=C(C)NC(Nc3nc4ccccc4o3)=NC2c2ccccc2Cl)cc1 (stereo not drawn) [Compound 170]
2. CC1=C(S(C)(=O)=O)C(c2ccccc2Cl)N=C(Nc2nc3ccccc3o2)N1 (stereo not drawn) [Compound 243]
3. CCn1ncc(CNC(=O)C2=C(C)NC(Nc3nc4ccc(F)c(N)c4o3)=NC2c2ccc(C)cc2Cl)c1F (stereo not drawn) [Compound 133]
4. CCOC(=O)C1=C(C)NC(Nc2nc3ccccc3o2)=NC1c1ccccc1Cl (stereo not drawn) [Compound 239]

1: 7.464; 2: 9.37; 3: 7.036; 4: 19.30

---

test: aqueous kinetic solubility; conditions: aqueous kinetic solubility
Would you mind telling me the reported Sol. of each entry?

Before answering, review these 5 worked examples.
# molecule, Sol.
measured = [
    ("CC1=C(C(=O)Nc2cccc(C(=O)O)n2)C(c2ccccc2Cl)N=C(Nc2nc3ccccc3o2)N1 (centres unmarked)", "60.0 µg/mL"),
    ("CC1=C(C(=O)NCCN(C)C)C(c2ccccc2Cl)N=C(Nc2nc3ccccc3o2)N1 (centres unmarked)", ">67 µg/mL"),
    ("CC1=C(C(=O)Nc2nncs2)C(c2ccncc2Br)N=C(Nc2nc3ccccc3o2)N1 (centres unmarked)", "6.5 µg/mL"),
    ("CCOC(=O)C1=C(C(C)C)NC(Nc2nc3ccccc3o2)=NC1c1ccccc1Cl (centres unmarked)", "<1 µg/mL"),
    ("CC1=C(C(=O)Nc2cc(C(=O)O)ccn2)[C@@H](c2ccccc2Cl)N=C(Nc2nc3ccccc3o2)N1", ">74 µg/mL"),
]

Respectfully, I request Sol. for each entry included below.
1. COC(=O)c1ccnc(NC(=O)C2=C(C)NC(Nc3nc4ccccc4o3)=NC2c2ccccc2Cl)c1 (centres unmarked)
2. CC1=C(C(=O)Nc2cccc(-c3cn[nH]c3)c2)C(c2ccccc2Cl)N=C(Nc2nc3ccccc3o2)N1 (centres unmarked)
3. CC1=C(C(=O)Nc2cccc(Br)c2)C(c2ccccc2Cl)N=C(Nc2nc3ccccc3o2)N1 (centres unmarked)

<1 µg/mL
<1 µg/mL
<1 µg/mL

---

target: recombinant mouse GALK1 (Mus musculus, UniProt Q9R0N0); experiment: mGALK1 biochemical activity assay (Kinase-Glo Plus, ATP depletion); conditions: recombinant mouse GALK1, Kinase-Glo Plus ATP depletion; read-out: mGALK
Sequence (Q9R0N0 whole entry): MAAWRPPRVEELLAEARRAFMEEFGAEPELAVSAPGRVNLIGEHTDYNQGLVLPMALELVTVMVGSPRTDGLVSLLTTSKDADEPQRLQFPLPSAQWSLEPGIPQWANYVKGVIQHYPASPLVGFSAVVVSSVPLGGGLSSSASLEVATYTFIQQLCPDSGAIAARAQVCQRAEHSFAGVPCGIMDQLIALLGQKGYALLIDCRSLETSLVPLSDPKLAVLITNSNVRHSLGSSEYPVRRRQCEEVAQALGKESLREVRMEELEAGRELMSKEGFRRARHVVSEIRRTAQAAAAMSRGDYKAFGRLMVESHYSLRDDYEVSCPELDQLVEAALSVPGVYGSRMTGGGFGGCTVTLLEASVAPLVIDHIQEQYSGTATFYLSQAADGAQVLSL
pIC50: −log10 of the molar value.
Assign 1 whenever pIC50 does not fall below 5; assign -1 whenever it does.

Reference set, count: 3
# compound, classification
measured = [
    ("CC1=C(C(=O)Nc2cc(C(=O)O)ccn2)C(c2ccccc2Cl)N=C(Nc2nc3ccc(C)cc3o2)N1 (stereo not drawn)", -1),
    ("CC1=C(C(=O)Nc2ccnc(C(=O)O)c2)C(c2ccccc2Cl)N=C(Nc2nc3ccccc3o2)N1 (stereo not drawn)", 1),
    ("CC1=C(C(=O)Nc2cc(C(=O)O)ccn2)C(c2ccc(C#N)cc2Cl)N=C(Nc2nc3ccc(F)cc3o2)N1 (stereo not drawn)", 1),
]

Given the entry CC1=C(C(=O)Nc2cc(C(=O)O)ccn2)C(c2ccccc2Cl)N=C(Nc2nc3ccccc3o2)N1 (racemic) , answer whether its pIC50 meets or surpasses 5.
1

Would you mind doing CC1=C(C(=O)Nc2ccc(N3CCNCC3)cc2)C(c2ccccc2Cl)N=C(Nc2nc3ccccc3o2)N1 (stereo not drawn) as well?
-1

Would you mind doing CC1=C(C(=O)Nc2cc(C(=O)O)ccn2)C(c2ccc(-n3ccnc3)cc2Cl)N=C(Nc2nc3ccc(F)cc3o2)N1 (stereo not drawn) as well?
1

Would you mind doing CCn1cc(CNC(=O)C2=C(C)NC(Nc3nc4ccc(F)c(N)c4o3)=NC2c2ccc(C)cc2Cl)cn1 (racemic) as well?
1

Would you mind doing CC1=C(C(=O)NCc2ccccn2)C(c2ccccc2Cl)N=C(Nc2nc3ccccc3o2)N1 (stereo not drawn) as well?
-1

Would you mind doing CNCCNC(=O)C1=C(C)NC(Nc2nc3ccc(F)cc3o2)=NC1c1ccccc1Cl (stereo not drawn) as well?
1

---

molecular target: hGALK1m (Homo sapiens, UniProt P51570, E253A/K252A); construct: made in house; host or cells: E. coli HMS174; assay: in vitro hGALK1 activity assay of the structure-based optimisation (Example 12, Tables 17-20); type: biochemical; settings: Tables 18-20 and text of Example 12
Sequence (P51570 whole entry K252A/E253A): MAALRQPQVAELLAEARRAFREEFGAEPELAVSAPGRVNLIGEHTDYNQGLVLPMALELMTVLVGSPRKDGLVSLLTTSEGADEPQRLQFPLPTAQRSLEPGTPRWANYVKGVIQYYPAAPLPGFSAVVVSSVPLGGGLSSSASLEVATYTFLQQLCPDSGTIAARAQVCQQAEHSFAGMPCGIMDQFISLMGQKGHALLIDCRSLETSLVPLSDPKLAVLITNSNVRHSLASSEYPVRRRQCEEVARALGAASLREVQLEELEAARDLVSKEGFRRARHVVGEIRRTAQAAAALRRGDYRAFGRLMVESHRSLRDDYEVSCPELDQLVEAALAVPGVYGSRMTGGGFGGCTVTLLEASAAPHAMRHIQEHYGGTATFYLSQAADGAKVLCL
Please assign Not met whenever IC50 is at or above 80 nM, and Met whenever it is below.

# compound, classification
measured = [
    ("CC1=C(C(=O)NCc2cnn(C)c2)[C@@H](c2ccc(C)cc2Cl)N=C(Nc2nc3cccc(N)c3o2)N1 [S-enantiomer of Compound 83]", "Met"),
]

Dear reviewer, please state whether CC1=C(C(=O)Nc2cc(C(=O)O)ccn2)C(c2ccccc2Cl)N=C(Nc2nc3cccc(N)c3o2)N1 (racemic) [Compound 3] has IC50 strictly beneath 80 nM.
Met

Would you mind doing CC1=C(C(=O)Nc2cc(C(=O)O)ccn2)C(c2ccc(F)cc2Cl)N=C(Nc2nc3ccc(F)cc3o2)N1 (stereo not shown) [Compound 45] as well?
Not met

Would you mind doing CC1=C(C(=O)Nc2cc(C(=O)O)ccn2)C(c2ccccc2Cl)N=C(Nc2nc3cc(C)ccc3o2)N1 (stereo not shown) [Compound 4] as well?
Not met

Would you mind doing CC1=C(C(=O)Nc2cc(C(=O)O)ccn2)C(c2ccccc2Br)N=C(Nc2nc3ccc(F)cc3o2)N1 (stereo not shown) [Compound 75] as well?
Not met

Would you mind doing CC1=C(C(=O)Nc2cc(C(=O)O)ccn2)[C@@H](c2ccccc2Cl)N=C(Nc2nc3ccccc3o2)N1 [S-enantiomer of Compound 194] as well?
Not met

Would you mind doing CC1=C(C(=O)NCc2cnn(C)c2)C(c2ccc(C)cc2Cl)N=C(Nc2nc3ccc(F)c(N)c3o2)N1 (stereo not shown) [Compound 126] as well?
Met

---

Would you mind telling me the reported Perm. (1 × 10^−6 cm/sec) of each entry?
experiment: PAMPA permeability

# molecule, experimental.result
data = [
    ("CC1=C(C(=O)Nc2cc(N(C)C)ccn2)C(c2ccc(C)cc2Cl)N=C(Nc2nc3cccc(N)c3o2)N1 (stereo not drawn)", "179.3 1 × 10^−6 cm/sec"),
    ("CC1=C(C(=O)Nc2cc(B(O)O)ccn2)C(c2ccc(C)cc2Cl)N=C(Nc2nc3ccc(F)cc3o2)N1 (stereo not drawn)", "<3.2 1 × 10^−6 cm/sec"),
    ("CCn1cc(CNC(=O)C2=C(C)NC(Nc3nc4cccc(N)c4o3)=NC2c2ccc(C)cc2Cl)cn1 (stereo not drawn)", "360.4 1 × 10^−6 cm/sec"),
    ("CC1=C(C(=O)Nc2cc(C(=O)O)ccc2Cl)C(c2ccccc2Cl)N=C(Nc2nc3ccc(F)cc3o2)N1 (stereo not drawn)", "29.6 1 × 10^−6 cm/sec"),
]

Respectfully, I request Perm. (1 × 10^−6 cm/sec) for each entry included below.
1. COc1ccc2oc(NC3=NC(c4ccccc4Cl)C(C(=O)Nc4cc(C(=O)O)ccn4)=C(C)N3)nc2c1 (stereo not drawn)
2. CC1=C(C(=O)Nc2cc(C(=O)O)ccn2)C(c2ccccc2Cl)N=C(Nc2nc3c(Cl)cccc3o2)N1 (stereo not drawn)
3. CC1=C(C(=O)Nc2cc(C(=O)O)ccn2)[C@@H](c2ccc(C)cc2Cl)N=C(Nc2nc3ccc(F)cc3o2)N1

1. <1 1 × 10^−6 cm/sec
2. <1.3 1 × 10^−6 cm/sec
3. <1 1 × 10^−6 cm/sec

Respectfully, I request Perm. (1 × 10^−6 cm/sec) for each entry included below.
1. CC1=C(C(=O)Nc2cc(C(=O)O)ccn2)C(c2cc(C(=O)O)ccc2Cl)N=C(Nc2nc3ccc(F)cc3o2)N1 (stereo not drawn)
2. COc1ccc2oc(NC3=NC(c4ccccc4Cl)C(C(=O)Nc4nnc(-c5cccnc5)s4)=C(C)N3)nc2c1 (stereo not drawn)
3. CCn1cc(CNC(=O)C2=C(C)NC(Nc3nc4ccc(F)cc4o3)=NC2c2ccc(C)cc2Cl)cn1 (stereo not drawn)

["2.85 1 × 10^−6 cm/sec", "<19.1 1 × 10^−6 cm/sec", "<21.9 1 × 10^−6 cm/sec"]

Respectfully, I request Perm. (1 × 10^−6 cm/sec) for each entry included below.
1. COc1ccc2nc(NC3=NC(c4ccccc4Cl)C(C(=O)Nc4cc(C(=O)O)ccn4)=C(C)N3)oc2c1 (stereo not drawn)
2. COc1ccc([C@@H]2N=C(Nc3nc4cccc(N)c4o3)NC(C)=C2C(=O)Nc2cc(C(=O)O)ccn2)c(Cl)c1
3. CC1=C(C(=O)Nc2cc(C(=O)O)ccn2)C(c2cccc(N)c2Cl)N=C(Nc2nc3ccc(F)cc3o2)N1 (stereo not drawn)
4. CC1=C(C(=O)Nc2cc(C(=O)O)ccn2)C(c2ccc(C)cc2Cl)N=C(Nc2nc3cccnc3o2)N1 (stereo not drawn)
5. CC1=C(C(=O)Nc2cc(C(=O)O)ccn2)C(c2cccc([N+](=O)[O-])c2Cl)N=C(Nc2nc3ccc(F)cc3o2)N1 (stereo not drawn)
6. CC1=C(C(=O)Nc2nnc(-c3cccnc3)s2)C(c2ccccc2Cl)N=C(Nc2nc3cc(N)ccc3o2)N1 (stereo not drawn)
7. COc1ccc2nc(NC3=NC(c4ccccc4Cl)C(C(=O)Nc4nnc(-c5cccnc5)s4)=C(C)N3)oc2c1 (stereo not drawn)

<1 1 × 10^−6 cm/sec
<1 1 × 10^−6 cm/sec
<1 1 × 10^−6 cm/sec
<1 1 × 10^−6 cm/sec
<1 1 × 10^−6 cm/sec
4.4 1 × 10^−6 cm/sec
<4.4 1 × 10^−6 cm/sec

Respectfully, I request Perm. (1 × 10^−6 cm/sec) for each entry included below.
1. CC1=C(C(=O)Nc2cc(-c3nn[nH]n3)ccn2)C(c2ccccc2Cl)N=C(Nc2nc3ccc(F)cc3o2)N1 (stereo not drawn)
2. CC1=C(C(=O)Nc2cc(C(=O)O)ccn2)C(c2ccc(-n3ccnc3)cc2Cl)N=C(Nc2nc3ccc(F)cc3o2)N1 (stereo not drawn)

<1 1 × 10^−6 cm/sec
<1 1 × 10^−6 cm/sec

Respectfully, I request Perm. (1 × 10^−6 cm/sec) for each entry included below.
1. CC1=C(C(=O)Nc2cc(C(=O)O)ccn2)[C@H](c2ccccc2Cl)N=C(Nc2nc3ccc(F)cc3o2)N1
2. CC1=C(C(=O)Nc2cc(C(=O)O)ccn2)C(c2ccc(F)cc2Cl)N=C(Nc2nc3ccc(F)cc3o2)N1 (stereo not drawn)

1. <1 1 × 10^−6 cm/sec
2. <1 1 × 10^−6 cm/sec
